Biological target: Env of HIV-1 strain YU2.DG (HIV-1)
Assay: cell-based or functional assay
Consider the following binders and their measured neutralization IC50 readings.
endpoint: neutralization IC50 (µg/mL)

[
  {
    "binder": "γ52κ61 (antibody, V domains shown) VH: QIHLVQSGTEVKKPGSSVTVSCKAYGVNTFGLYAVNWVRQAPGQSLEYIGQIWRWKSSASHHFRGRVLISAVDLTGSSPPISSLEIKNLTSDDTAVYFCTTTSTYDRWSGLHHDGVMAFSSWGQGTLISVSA VL: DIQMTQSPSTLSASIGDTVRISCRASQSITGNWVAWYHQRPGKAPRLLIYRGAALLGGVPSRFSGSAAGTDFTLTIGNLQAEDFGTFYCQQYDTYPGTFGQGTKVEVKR",
    "endpoint": "neutralization IC50",
    "result.modifier": "=",
    "measurement": 0.408
  },
  {
    "binder": "γ4κ3 (antibody, V domains shown) VH: QIHLVQSGTEVKKPGSSVTVSCKAYGVNTFGLYAVNWVRQAPGQSLEYIGQIWRWKSSASHHFRGRVIISAVDLTGSSPPISPLEIKNLTSDDTAVYFCTTTSTSDRWSGLHHDGVMAFSSWGQGTLISVSA VL: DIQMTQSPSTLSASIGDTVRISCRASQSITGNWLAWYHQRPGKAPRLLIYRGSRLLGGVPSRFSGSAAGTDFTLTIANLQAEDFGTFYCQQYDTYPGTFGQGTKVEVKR",
    "endpoint": "neutralization IC50",
    "result.modifier": ">",
    "measurement": 15
  },
  {
    "binder": "8ANC3630 (antibody, V domains shown) VH: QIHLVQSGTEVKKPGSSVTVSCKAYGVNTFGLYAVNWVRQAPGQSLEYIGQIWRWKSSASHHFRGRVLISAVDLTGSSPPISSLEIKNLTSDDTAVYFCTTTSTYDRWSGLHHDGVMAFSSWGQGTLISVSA VL: DIQMTQSPSTLSASIGDTVRISCRASQSITGGWLAWYHQRPGKAPRLLIYRGSRLLGGVPSRFSGSAAGTDFTLTIANLQAEDFGTFYCQQYDTYPGTFGQGTKVEVKR",
    "endpoint": "neutralization IC50",
    "result.modifier": "=",
    "measurement": 0.468
  },
  {
    "binder": "γ46κ18 (antibody, V domains shown) VH: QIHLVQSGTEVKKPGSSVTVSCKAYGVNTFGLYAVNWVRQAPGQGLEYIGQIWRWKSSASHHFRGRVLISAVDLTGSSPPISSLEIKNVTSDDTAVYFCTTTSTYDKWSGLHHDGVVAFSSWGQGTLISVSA VL: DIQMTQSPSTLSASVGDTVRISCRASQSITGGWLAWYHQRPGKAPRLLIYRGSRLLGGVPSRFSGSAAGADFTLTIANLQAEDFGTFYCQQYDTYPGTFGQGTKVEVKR",
    "endpoint": "neutralization IC50",
    "result.modifier": "=",
    "measurement": 2.36
  },
  {
    "binder": "γ59κ3 (antibody, V domains shown) VH: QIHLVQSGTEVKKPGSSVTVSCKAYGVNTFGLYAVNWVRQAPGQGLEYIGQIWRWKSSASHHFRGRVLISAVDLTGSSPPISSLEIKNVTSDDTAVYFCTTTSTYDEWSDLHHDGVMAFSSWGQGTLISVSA VL: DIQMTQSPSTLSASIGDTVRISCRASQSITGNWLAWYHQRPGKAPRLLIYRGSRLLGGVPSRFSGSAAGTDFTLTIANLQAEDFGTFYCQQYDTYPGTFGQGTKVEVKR",
    "endpoint": "neutralization IC50",
    "result.modifier": "=",
    "measurement": 8.97
  },
  {
    "binder": "γ46κ5 (antibody, V domains shown) VH: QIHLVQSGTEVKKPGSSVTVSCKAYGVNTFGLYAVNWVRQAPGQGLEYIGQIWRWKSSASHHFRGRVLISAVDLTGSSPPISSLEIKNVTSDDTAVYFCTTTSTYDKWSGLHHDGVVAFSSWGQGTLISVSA VL: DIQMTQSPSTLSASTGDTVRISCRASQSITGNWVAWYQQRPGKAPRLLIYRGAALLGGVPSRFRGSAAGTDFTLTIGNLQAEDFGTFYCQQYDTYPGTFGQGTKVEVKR",
    "endpoint": "neutralization IC50",
    "result.modifier": "=",
    "measurement": 0.553
  },
  {
    "binder": "γ59κ5 (antibody, V domains shown) VH: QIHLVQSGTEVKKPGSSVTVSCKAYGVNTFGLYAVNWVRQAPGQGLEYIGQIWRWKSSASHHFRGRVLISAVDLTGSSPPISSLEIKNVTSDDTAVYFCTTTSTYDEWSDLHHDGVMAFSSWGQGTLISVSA VL: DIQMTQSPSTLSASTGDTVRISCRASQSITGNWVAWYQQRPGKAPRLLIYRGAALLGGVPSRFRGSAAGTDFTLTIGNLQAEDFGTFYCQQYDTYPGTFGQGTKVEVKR",
    "endpoint": "neutralization IC50",
    "result.modifier": "=",
    "measurement": 7.28
  },
  {
    "binder": "γ22κ5 (antibody, V domains shown) VH: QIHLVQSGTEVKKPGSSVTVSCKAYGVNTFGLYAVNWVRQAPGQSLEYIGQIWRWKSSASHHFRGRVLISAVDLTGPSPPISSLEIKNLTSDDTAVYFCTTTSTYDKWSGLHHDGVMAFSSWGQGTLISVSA VL: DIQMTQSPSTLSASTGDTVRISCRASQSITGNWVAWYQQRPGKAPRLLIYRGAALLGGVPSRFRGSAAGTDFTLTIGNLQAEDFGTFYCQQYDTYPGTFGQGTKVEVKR",
    "endpoint": "neutralization IC50",
    "result.modifier": "=",
    "measurement": 0.569
  },
  {
    "binder": "γ20κ19 (antibody, V domains shown) VH: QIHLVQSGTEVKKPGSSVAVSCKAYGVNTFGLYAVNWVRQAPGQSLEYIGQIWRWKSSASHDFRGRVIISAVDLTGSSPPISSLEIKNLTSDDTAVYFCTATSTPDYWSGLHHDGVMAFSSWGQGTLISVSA VL: DIQMTQSPSTLSASVGDTVRISCRASQSITGGWLAWYHQRPGKAPRLLIYRGSRLLGGVPSRFSGSAAGTGFTLTIANLQAEDFGTFYCQQYDTYPGTFGQGTKVEVKR",
    "endpoint": "neutralization IC50",
    "result.modifier": ">",
    "measurement": 15
  },
  {
    "binder": "γ44κ61 (antibody, V domains shown) VH: QIHLVQSGTEVKKPGSSVTVSCKAYEVNTFGLYAVNWVRQAPGQSLEYIGQIWRWKSSASHHFRGRVLISAVDLTGSSPPISSLEIKNVTSDDTAVYFCTTTSTHDKWSGLHHDGVMAFSSWGQGTLISVSA VL: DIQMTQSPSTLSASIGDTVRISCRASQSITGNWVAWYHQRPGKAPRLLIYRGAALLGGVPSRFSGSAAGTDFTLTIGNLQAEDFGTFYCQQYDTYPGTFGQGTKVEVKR",
    "endpoint": "neutralization IC50",
    "result.modifier": ">",
    "measurement": 15
  }
]
